For each record, write down the corresponding TGI.
# System: SK-OV-3 ovarian
# method_summary: NCI tumour cell line growth inhibition, 48 h

- molecule: "COC(=O)C(=O)C(C(=O)C(=O)Nc1ccccc1[N+](=O)[O-])c1nc2ccc([N+](=O)[O-])cc2[nH]c1=O (stereo unspecified)"
  measured_quantity: "TGI"
  recorded_value: "> 100 µM"

# map each molecule to its TGI
1. C=CC1C(CC2OC(CO)C(O)C(O)C2O)OC=C2C(=O)OCCC21O (stereo unspecified)
2. O=C1C(N2CCN(CCOCCO)CC2)=C(Cl)C(=O)c2ncccc21
3. COC(=O)[C@@H](NS(=O)(=O)CC12CCC(CC1)C2(C)C)C(C)(C)C
4. O=C(O)c1c2c(cc3c(=O)c4ccccc4[nH]c13)CCCC2
5. CC1=NN(c2ccccc2)C(=O)C12[C@H](c1ccccc1)C2(C#N)C#N (stereo partly specified)
6. O=[N+]([O-])c1ccc(N2N=C(c3c(O)ccc4ccccc34)CC2c2ccc(Cl)cc2)c([N+](=O)[O-])c1 (stereo unspecified)

A:
["> 100 µM", "> 100 µM", "> 100 µM", "> 100 µM", "32.7 µM", "> 100 µM"]

# batch size: 2; output TGI per entry
1. CCOC(=O)c1cc2c3c(c(C(C)=O)c(OC)c2[nH]1)N(C(=O)CC)CC3
2. CCCC(O)c1cn(-c2cccc(S(=O)(=O)O)c2)nn1 (stereo unspecified)

A:
["> 100 µM", "> 100 µM"]

Batch lookup, TGI per entry.
1. O=C1c2ccccc2C2(c3ccc(F)cc3)NCCN12 (stereo unspecified)
2. Cn1c2ccccc2n2c3ncccc3c(=O)cc12

A:
["> 100 µM", "> 100 µM"]

----------
# Tested on: SK-OV-3 ovarian
# method_summary: NCI tumour cell line growth inhibition, 48 h
measured_quantity: TGI

Consider the following illustrative entries.
- molecule: "NC1CCCCC1NCCNC1CCCCC1N (centres undefined)"
  TGI: "> 100 µM"
- molecule: "Cc1ccc(N2C(=O)/C(=C/c3ccc(N(CCC#N)CCC#N)cc3)N=C2COc2ccc(Cl)cc2Cl)cc1"
  TGI: "> 100 µM"
- molecule: "CCOC(=O)CCc1cn2cc(Br)nc(OC)c2n1"
  TGI: "> 100 µM"
- molecule: "Cc1cc(C)nc(NS(=O)(=O)c2ccc(NNc3c4ccccc4nc4c(C(=O)Nc5ccc(S(=O)(=O)Nc6cc(C)on6)cc5)cccc34)cc2)n1"
  TGI: "> 100 µM"

Give one value of TGI per listed molecule.
1. CCCCCCCCCCCNC=O
2. COc1c(C)c(C/C=C(\C)CCCC(C)CCCC(C)CCCC(C)C)c(OC)c2ccccc12 (centres undefined)

A:
1: > 100 µM; 2: > 100 µM

For each of the molecules below, note its TGI.
1. CCOC(=O)c1c(-c2ccccc2)[n+](=O)c2cc(F)c(F)cc2n1[O-]
2. Cc1cc2c(c(C(=O)NCC(=O)O)c1)Oc1c(cc(C)cc1C(=O)NCC(=O)O)S2
3. COC1=C(OC)C(=O)C(C/C=C(\C)CC/C=C(\C)CC/C=C(\C)CC/C=C(\C)CC/C=C(\C)CC/C=C(\C)CC/C=C(\C)CC/C=C(\C)CC/C=C(\C)CCC=C(C)C)=C(C)C1=O

A:
1: 3.57 µM; 2: > 100 µM; 3: > 100 µM

Look up TGI for the entries below, preserving their order.
1. Cc1cc(Cl)cc2c1NC(=O)C2(O)CC(=O)c1ccc(Br)cc1 (centres undefined)
2. O=C(c1ccccc1)c1nnn(Cc2ccccc2Cn2nnc(C(=O)c3ccccc3)c2C(=O)c2ccccc2)c1C(=O)c1ccccc1
3. CC(c1ccccc1)n1cncc1C(=O)NN1CCN(C)CC1 (centres undefined)
4. NC1=NC(SCc2ccccc2CCl)c2ncn(Cc3ccccc3CCl)c2N1 (centres undefined)
5. CSc1nnc(SCc2nn3c(=O)cc(C)nc3s2)s1

A:
> 100 µM
> 100 µM
> 10 µM
13.9 µM
> 100 µM

Okay, here is my list. What is TGI for each of these?
1. CN(C)c1ccc(/C=c2/c3ccccc3n3c2cc(/C=C/c2ccccc2)[n+]3C)cc1
2. COc1ccc(-n2c(N)c(C#N)c(C#N)c2-c2ccco2)cc1
3. O=CC(O)C(O)C(O)C(O)COC(=O)NCCCCC(=O)C(F)(F)C(F)(F)C(F)(F)C(F)(F)C(F)(F)C(F)(F)C(F)(F)F (centres undefined)
4. CCCCNS(=O)(=O)c1ccc(-c2ccc3c(c2)-c2ccc(S(=O)(=O)NCCCC)cc2S3(=O)=O)cc1
5. Cc1nc(NS(=O)(=O)c2ccc(NCN3C(=O)c4ccccc4C3=O)cc2)oc1C

A:
["1.14 µM", "> 100 µM", "56.4 µM", "45.5 µM", "> 100 µM"]
